System: COLO 205
experimental_details: NCI tumour cell line growth inhibition, 48 h
The source made the active and inactive calls. No stated cut-off is given here; in the data, active = GI50 up to about 1.1 µM and inactive = higher.

{"compound": "O=C(CP(=O)(c1ccccc1)c1ccccc1)c1cccc(C(=O)CP(=O)(c2ccccc2)c2ccccc2)c1", "GI50": "> 100 µM (inactive)"}
{"compound": "Nc1nc(=O)c2c([nH]1)NCC(CNc1ccc(C(=O)N[C@@H](CCC(=O)O)C(=O)O)cc1)N2C=O (some centres undefined)", "GI50": "> 125 µM (inactive)"}
{"compound": "O=c1oc2ccccc2n1CCCn1c(=O)oc2ccccc21", "GI50": "> 100 µM (inactive)"}
{"compound": "COc1ccc2c(c1)[nH]c1c3ccc(OC)cc3oc(=O)c21", "GI50": "> 100 µM (inactive)"}
{"compound": "O=C(O)C(O)C(O)C(O)C(=O)CO (centres undefined)", "GI50": "> 100 µM (inactive)"}
{"compound": "O=C(O)CCc1c2ccc(=O)c(O)c-2oc2c(O)c(O)ccc12", "GI50": "> 100 µM (inactive)"}
{"compound": "C1CSCCSCCCSC2CCCCC2SC1 (centres undefined)", "GI50": "86.3 µM (inactive)"}
{"compound": "COC(=O)C(Cc1nc2ccc(Cl)cc2nc1O)/C(=N\\N)C(=O)Nc1cc(C)c(Cl)cc1S(=O)(=O)O (centres undefined)", "GI50": "> 100 µM (inactive)"}
{"compound": "CC1(F)C=CC(=O)C=C1", "GI50": "> 100 µM (inactive)"}
{"compound": "OCCCSCCO", "GI50": "> 100 µM (inactive)"}
{"compound": "O=C1Cc2c(-c3ccccc3)cc(-c3ccc4ccccc4c3)nc2-c2ccccc2N1", "GI50": "31.9 µM (inactive)"}
{"compound": "CC(C)NC(C)C(C)c1ccccc1 (centres undefined)", "GI50": "> 100 µM (inactive)"}
{"compound": "CNC(=O)OCc1c(COC(=O)NC)c(C)n(-c2ccc(Br)cc2)c1C", "GI50": "13.4 µM (inactive)"}
{"compound": "O=C1C/C(Br)=C\\c2ccccc2-c2ccccc21", "GI50": "3.76 µM (inactive)"}
